- Target Entity: P-gp (Homo sapiens)
- Assay Procedure: P-gp transport studies across MDCKII-MDR1 monolayers
- Test Parameters: mean of PAB and PBA in the fully inhibited system
For each of the compounds below, state its PPassive.

Request: Entry C[N+]1=c2cc3c(cc2C(C)(C)CC1)=C(c1ccc(C(=O)N2CCCCC2)s1)c1cc2c4c(c1[Se]3)CCCN4CCC2.[Cl-] [Compd 8] : reported PPassive = ?
Response: ~1 ×10^−9 m s^−1

Request: Entry CN1CCC(C)(C)c2cc3c(cc21)[Se]c1cc2c(cc1=C3c1ccc(C(=S)N3CCCCC3)s1)C(C)(C)CC[N+]=2C.[Cl-] [Compd 9] : reported PPassive = ?
Response: <1 ×10^−9 m s^−1

Request: Looking for the measured PPassive of O=C(c1ccc(C2=c3cc4c5c(c3[Se]c3c2cc2c6c3CCCN6CCC2)CCC[N+]=5CCC4)s1)N1CCCCC1.[Cl-] [Compd 6] , can you help?
Response: ~2 ×10^−9 m s^−1

Request: Item S=C(c1ccc(C2=c3cc4c5c(c3[Se]c3c2cc2c6c3CCCN6CCC2)CCC[N+]=5CCC4)s1)N1CCCCC1.[Cl-] [Compd 5] has what recorded PPassive?
Response: <1 ×10^−9 m s^−1

Request: Please give the measured PPassive for this compound: CN1CCC(C)(C)c2cc3c(cc21)[Se]c1cc2c(cc1=C3c1ccc(C(=O)N3CCCCC3)s1)C(C)(C)CC[N+]=2C.[Cl-] [Compd 10]
Response: ~2 ×10^−9 m s^−1

Request: Given C[N+]1=c2cc3c(cc2C(C)(C)CC1)=C(c1ccc(C(=S)N2CCCCC2)s1)c1cc2c4c(c1[Se]3)CCCN4CCC2.[Cl-] [Compd 7] , state its recorded PPassive.
Response: <1 ×10^−9 m s^−1

====

- Target Entity: P-gp (Homo sapiens, UniProt P08183)
- Sequence (P08183 whole entry): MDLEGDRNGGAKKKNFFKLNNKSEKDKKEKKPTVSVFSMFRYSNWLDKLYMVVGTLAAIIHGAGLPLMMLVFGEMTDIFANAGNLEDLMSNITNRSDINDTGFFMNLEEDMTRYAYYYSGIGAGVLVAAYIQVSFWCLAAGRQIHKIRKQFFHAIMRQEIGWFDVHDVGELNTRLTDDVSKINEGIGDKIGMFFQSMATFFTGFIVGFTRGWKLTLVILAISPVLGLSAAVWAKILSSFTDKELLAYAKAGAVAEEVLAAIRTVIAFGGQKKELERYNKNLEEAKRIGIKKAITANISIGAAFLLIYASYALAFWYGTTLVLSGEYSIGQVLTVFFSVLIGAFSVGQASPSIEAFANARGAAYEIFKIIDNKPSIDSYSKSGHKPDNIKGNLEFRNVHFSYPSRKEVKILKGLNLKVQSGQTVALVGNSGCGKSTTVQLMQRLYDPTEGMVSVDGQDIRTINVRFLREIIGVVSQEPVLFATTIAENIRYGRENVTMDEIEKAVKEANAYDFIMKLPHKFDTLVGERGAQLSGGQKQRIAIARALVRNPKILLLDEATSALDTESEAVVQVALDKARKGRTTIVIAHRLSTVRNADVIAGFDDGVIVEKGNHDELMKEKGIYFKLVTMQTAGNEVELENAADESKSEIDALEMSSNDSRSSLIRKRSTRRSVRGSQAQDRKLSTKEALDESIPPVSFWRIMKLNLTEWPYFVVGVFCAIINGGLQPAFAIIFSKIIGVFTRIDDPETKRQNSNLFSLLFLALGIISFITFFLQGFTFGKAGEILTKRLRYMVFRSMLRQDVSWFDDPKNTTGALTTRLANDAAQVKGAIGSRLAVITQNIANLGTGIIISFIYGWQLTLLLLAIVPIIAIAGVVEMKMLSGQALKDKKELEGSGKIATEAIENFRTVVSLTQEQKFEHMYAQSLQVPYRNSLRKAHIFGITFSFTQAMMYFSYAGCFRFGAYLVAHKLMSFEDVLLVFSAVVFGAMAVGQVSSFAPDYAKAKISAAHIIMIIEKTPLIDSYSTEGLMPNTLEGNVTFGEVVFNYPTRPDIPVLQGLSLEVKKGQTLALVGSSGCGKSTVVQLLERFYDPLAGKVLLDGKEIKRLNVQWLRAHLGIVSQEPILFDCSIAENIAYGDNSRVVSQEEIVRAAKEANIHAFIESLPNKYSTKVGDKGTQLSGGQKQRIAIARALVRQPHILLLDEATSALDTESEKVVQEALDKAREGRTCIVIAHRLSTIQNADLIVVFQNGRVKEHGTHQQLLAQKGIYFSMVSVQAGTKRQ
- Assay Procedure: P-gp transport studies across MDCKII-MDR1 monolayers
- Test Parameters: no inhibitor; 5 × 10^−6 M dye, 4.3 mg mL^−1 BSA; ± SD
Measurement Type: PAB, transport in absorptive direction

Request: Item under review: CN1CCC(C)(C)c2cc3c(cc21)[Se]c1cc2c(cc1=C3c1ccc(C(=O)N3CCCCC3)s1)C(C)(C)CC[N+]=2C.[Cl-] [Compd 10] . Reported PAB, transport in absorptive direction?
Response: 1.8 ± 1 ×10^−9 m s^−1

Request: PAB, transport in absorptive direction for C[N+]1=c2cc3c(cc2C(C)(C)CC1)=C(c1ccc(C(=O)N2CCCCC2)s1)c1cc2c4c(c1[Se]3)CCCN4CCC2.[Cl-] [Compd 8] ?
Response: 1.4 ± 0.8 ×10^−9 m s^−1

Request: Which PAB, transport in absorptive direction value is on record for S=C(c1ccc(C2=c3cc4c5c(c3[Se]c3c2cc2c6c3CCCN6CCC2)CCC[N+]=5CCC4)s1)N1CCCCC1.[Cl-] [Compd 5] ?
Response: 0.3 ± 0.3 ×10^−9 m s^−1

Request: Which PAB, transport in absorptive direction reading was recorded for the compound O=C(c1ccc(C2=c3cc4c5c(c3[Se]c3c2cc2c6c3CCCN6CCC2)CCC[N+]=5CCC4)s1)N1CCCCC1.[Cl-] [Compd 6] ?
Response: 2.1 ± 0.1 ×10^−9 m s^−1

Request: Give its PAB, transport in absorptive direction value. Item: C[N+]1=c2cc3c(cc2C(C)(C)CC1)=C(c1ccc(C(=S)N2CCCCC2)s1)c1cc2c4c(c1[Se]3)CCCN4CCC2.[Cl-] [Compd 7]
Response: 0.44 ± 0.1 ×10^−9 m s^−1

====

- System: HUT-78 cells
- Assay Procedure: Uptake in presence and absence of verapamil by flow cytometry
- Format: cell-based, human
- Test Parameters: 2 × 10^−7 M selenorhodamine, 1 × 10^−4 M VER, 1 h, mean ± SD
Measurement Type: ratio of uptake +VER/−VER
// print number alone

Request: Give its ratio of uptake +VER/−VER value. Item: `CN1CCC(C)(C)c2cc3c(-c4ccc(C(=O)N5CCCCC5)s4)c4ccc(=[N+](C)C)cc-4[se]c3cc21.[Cl-]`
Response: 1.33

Request: Could you tell me which ratio of uptake +VER/−VER is on file for `S=C(c1ccc(C2=c3cc4c5c(c3[Se]c3c2cc2c6c3CCCN6CCC2)CCC[N+]=5CCC4)s1)N1CCCCC1.[Cl-]` ?
Response: 1.17

Request: Name the recorded ratio of uptake +VER/−VER for `CN1CCC(C)(C)c2cc3c(-c4ccc(C(=S)N5CCCCC5)s4)c4ccc(=[N+](C)C)cc-4[se]c3cc21.[Cl-]` .
Response: 1.27

Request: # input compound: `O=C(c1ccc(C2=c3cc4c5c(c3[Se]c3c2cc2c6c3CCCN6CCC2)CCC[N+]=5CCC4)s1)N1CCCCC1.[Cl-]` ; wanted: its ratio of uptake +VER/−VER
Response: 1.13

====

- Assay Procedure: Steady-state fluorescence spectra and quantum yields in CH3OH
- Assay type: physicochemical
- Test Parameters: excitation at 532 nm, ± SD
Measurement Type: Quantum yield for fluorescence ΦFL
Answer field: number only, no words.

Request: Need Quantum yield for fluorescence ΦFL of `C[N+]1=c2cc3c(cc2C(C)(C)CC1)=C(c1ccc(C(=O)N2CCCCC2)s1)c1cc2c4c(c1[Se]3)CCCN4CCC2.[Cl-]` , thanks.
Response: 0.009

Request: Param item = `CN1CCC(C)(C)c2cc3c(cc21)[Se]c1cc2c(cc1=C3c1ccc(C(=S)N3CCCCC3)s1)C(C)(C)CC[N+]=2C.[Cl-]` ; retrieve measured Quantum yield for fluorescence ΦFL.
Response: 0.006

Request: # query: Quantum yield for fluorescence ΦFL of entry `CN1CCC(C)(C)c2cc3c(cc21)[Se]c1cc2c(cc1=C3c1ccc(C(=O)N3CCCCC3)s1)C(C)(C)CC[N+]=2C.[Cl-]`
Response: 0.007

Request: Quantum yield for fluorescence ΦFL lookup needed for `C[N+]1=c2cc3c(cc2C(C)(C)CC1)=C(c1ccc(C(=S)N2CCCCC2)s1)c1cc2c4c(c1[Se]3)CCCN4CCC2.[Cl-]` , thanks.
Response: 0.008

====

- Test system: HUT-78 cells
- Format: cell-based, human
Field: % survival HUT-78. Provide a value for each of the compounds that follow.
Field: numeric (%). Do not append units.

Request: Fill in: % survival HUT-78 of CN1CCC(C)(C)c2cc3c(cc21)[Se]c1cc2c(cc1=C3c1ccc(C(=S)N3CCCCC3)s1)C(C)(C)CC[N+]=2C.[Cl-] [Compd 9] is ___
Response: 8.1

Request: What measured % survival HUT-78 goes with CN1CCC(C)(C)c2cc3c(-c4ccc(C(=O)N5CCCCC5)s4)c4ccc(=[N+](C)C)cc-4[se]c3cc21.[Cl-] [Compd 4] ?
Response: 6.7

Request: What measured % survival HUT-78 goes with S=C(c1ccc(C2=c3cc4c5c(c3[Se]c3c2cc2c6c3CCCN6CCC2)CCC[N+]=5CCC4)s1)N1CCCCC1.[Cl-] [Compd 5] ?
Response: 2.0

====

- Target Entity: P-gp (Homo sapiens, UniProt P08183)
- Assay Procedure: P-gp transport studies across MDCKII-MDR1 monolayers
- Test Parameters: with 5 × 10^−6 M inhibitor 15; 5 × 10^−6 M dye, 4.3 mg mL^−1 BSA; ± SD
Field: PBA, transport in secretory direction (+inh). Provide a value for each of the molecules that follow.

Request: Entry CN1CCC(C)(C)c2cc3c(cc21)[Se]c1cc2c(cc1=C3c1ccc(C(=S)N3CCCCC3)s1)C(C)(C)CC[N+]=2C.[Cl-] [Compd 9] , system P-gp (Homo sapiens, UniProt P08183): what PBA, transport in secretory direction (+inh) was measured?
Response: 0.13 ± 0.1 ×10^−9 m s^−1

Request: Form field: PBA, transport in secretory direction (+inh) recorded for S=C(c1ccc(C2=c3cc4c5c(c3[Se]c3c2cc2c6c3CCCN6CCC2)CCC[N+]=5CCC4)s1)N1CCCCC1.[Cl-] [Compd 5] with P-gp (Homo sapiens, UniProt P08183) (enter value)
Response: 0.57 ± 0.1 ×10^−9 m s^−1

Request: Which measured PBA, transport in secretory direction (+inh) belongs to O=C(c1ccc(C2=c3cc4c5c(c3[Se]c3c2cc2c6c3CCCN6CCC2)CCC[N+]=5CCC4)s1)N1CCCCC1.[Cl-] [Compd 6] , tested on P-gp (Homo sapiens, UniProt P08183)?
Response: 4.8 ± 0.1 ×10^−9 m s^−1

====

- Target Entity: P-gp (Homo sapiens)
- Assay Procedure: P-gp transport studies across MDCKII-MDR1 monolayers
- Test Parameters: with 5 × 10^−6 M inhibitor 15; 5 × 10^−6 M dye, 4.3 mg mL^−1 BSA; ± SD
Measurement Type: PAB, transport in absorptive direction (+inh)

Request: Which PAB, transport in absorptive direction (+inh) value is on record for C[N+]1=c2cc3c(cc2C(C)(C)CC1)=C(c1ccc(C(=S)N2CCCCC2)s1)c1cc2c4c(c1[Se]3)CCCN4CCC2.[Cl-] [Compd 7] ?
Response: 0.46 ± 0.1 ×10^−9 m s^−1

Request: Entry C[N+]1=c2cc3c(cc2C(C)(C)CC1)=C(c1ccc(C(=O)N2CCCCC2)s1)c1cc2c4c(c1[Se]3)CCCN4CCC2.[Cl-] [Compd 8] has what PAB, transport in absorptive direction (+inh)?
Response: 0.18 ± 0.1 ×10^−9 m s^−1

Request: Consider the molecule CN1CCC(C)(C)c2cc3c(cc21)[Se]c1cc2c(cc1=C3c1ccc(C(=S)N3CCCCC3)s1)C(C)(C)CC[N+]=2C.[Cl-] [Compd 9] and give its measured PAB, transport in absorptive direction (+inh).
Response: 0.51 ± 0.1 ×10^−9 m s^−1

Request: # PAB, transport in absorptive direction (+inh) lookup, item S=C(c1ccc(C2=c3cc4c5c(c3[Se]c3c2cc2c6c3CCCN6CCC2)CCC[N+]=5CCC4)s1)N1CCCCC1.[Cl-] [Compd 5]
Response: 0.51 ± 0.3 ×10^−9 m s^−1

Request: // returns reported PAB, transport in absorptive direction (+inh) for input CN1CCC(C)(C)c2cc3c(cc21)[Se]c1cc2c(cc1=C3c1ccc(C(=O)N3CCCCC3)s1)C(C)(C)CC[N+]=2C.[Cl-] [Compd 10]
Response: 0.51 ± 0.1 ×10^−9 m s^−1

Request: PAB, transport in absorptive direction (+inh) for O=C(c1ccc(C2=c3cc4c5c(c3[Se]c3c2cc2c6c3CCCN6CCC2)CCC[N+]=5CCC4)s1)N1CCCCC1.[Cl-] [Compd 6] ?
Response: 0.24 ± 0.1 ×10^−9 m s^−1
